// values below are reported inhibition at 10 µM
molecular target: DOR (δ opioid receptor) (Homo sapiens); construct: expressed in transfected cells; host or cells: HEK293; test: DOR radioligand binding ([3H]-DADLE, HEK293 cell homogenates); conditions: Percent inhibition at 10,000 nM; [3H]-DADLE
Sequence (P41143 whole entry): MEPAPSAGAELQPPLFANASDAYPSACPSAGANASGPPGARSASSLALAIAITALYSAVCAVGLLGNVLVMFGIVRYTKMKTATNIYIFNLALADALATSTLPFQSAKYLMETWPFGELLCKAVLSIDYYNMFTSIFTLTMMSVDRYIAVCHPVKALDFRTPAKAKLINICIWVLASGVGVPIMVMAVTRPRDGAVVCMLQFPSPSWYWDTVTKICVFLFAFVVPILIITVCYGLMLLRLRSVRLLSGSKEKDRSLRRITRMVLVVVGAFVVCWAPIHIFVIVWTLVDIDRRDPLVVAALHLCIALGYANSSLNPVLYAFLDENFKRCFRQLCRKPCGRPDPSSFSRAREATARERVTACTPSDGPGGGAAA
Give just the number in %; leave the unit off.

Sample records with inhibition at 10 µM:
[[record]]
compound = "C#Cc1ccc2c(c1)C(c1ccccc1F)=NCc1c(-c3cnco3)ncn1-2 [KRM-II-18B]"
reportedvalue = 20

[[record]]
compound = "C#Cc1ccc2c(c1)C(c1ccccc1F)=N[C@H](C)c1c(-c3cnco3)ncn1-2"
reportedvalue = 4

[[record]]
compound = "C#Cc1ccc2c(c1)C(c1ccccn1)=NCc1c(-c3cnco3)ncn1-2"
reportedvalue = 3


Return inhibition at 10 µM for the following compound: C#Cc1ccc2c(c1)C(c1ccccc1F)=N[C@H](C)c1c(-c3nc(C)no3)ncn1-2
10

Retrieve inhibition at 10 µM measured for C#Cc1ccc2c(c1)C(c1ccccc1F)=N[C@@H](C)c1c(C(=O)OC)ncn1-2 and print it.
22

Give the measured inhibition at 10 µM for C#Cc1ccc2c(c1)C(c1ccccc1F)=N[C@@H](C)c1c(C(=O)NC(C)(C)C)ncn1-2
10

For the compound C[C@H]1N=C(c2ccccc2F)c2cc(C3CC3)ccc2-n2cnc(C(=O)N(C)C)c21 , report inhibition at 10 µM.
50

====

tested on: BZR (benzodiazepine site of GABAAR); test: GABAAR/BZR binding, rat brain homogenate with 3H-flunitrazepam; conditions: Percent inhibition at 10,000 nM; rat brain homogenate, 3H-flunitrazepam
measurementKind: BZR % (%)
# output: bare number, implied unit %

Known BZR % results, listed for orientation:
[[record]]
molecule = "C#Cc1ccc2c(c1)C(c1ccccn1)=NCc1c(-c3nc(CC)no3)ncn1-2 [MP-III-080]"
measurementkind = "BZR %"
reportedvalue = 88

[[record]]
molecule = "C#Cc1ccc2c(c1)C(c1ccccc1F)=NCc1c(-c3ocnc3C)ncn1-2 [KRM-III-65]"
measurementkind = "BZR %"
reportedvalue = 96

[[record]]
molecule = "C#Cc1ccc2c(c1)C(c1ccccc1F)=N[C@H](C)c1c(C(=O)O)ncn1-2 [SH-053-2'F-R-CH3-Acid]"
measurementkind = "BZR %"
reportedvalue = 93

[[record]]
molecule = "C#Cc1ccc2c(c1)C(c1ccccc1F)=N[C@H](C)c1c(C(=O)NC3CC3)ncn1-2 [GL-II-75]"
measurementkind = "BZR %"
reportedvalue = 85

[[record]]
molecule = "C#Cc1ccc2c(c1)C(c1ccccc1F)=N[C@H](C)c1c(C(=O)OC)ncn1-2 [MP-III-004]"
measurementkind = "BZR %"
reportedvalue = 78

[[record]]
molecule = "C#Cc1ccc2c(c1)C(c1ccccc1F)=N[C@H](C)c1c(C(=O)NC)ncn1-2 [MP-III-022]"
measurementkind = "BZR %"
reportedvalue = 95


Answer with the recorded BZR % for the molecule listed here: C#Cc1ccc2c(c1)C(c1ccccc1F)=N[C@@H](C)c1c(C(=O)OC(C)(C)CC)ncn1-2 [GL-I-33]
96

Identify BZR % associated with the molecule C#Cc1ccc2c(c1)C(c1ccccc1F)=N[C@@H](C)c1c(C(=O)OCC)ncn1-2 [SH-053-2′F-S-CH3]
92

Assign BZR % to the following record: Brc1ccc2c(c1)C(c1ccccc1)=NCc1c(-c3cnco3)ncn1-2 [KRM-II-73]
97

Tell us which BZR % value is on record for C#Cc1ccc2c(c1)C(c1ccccc1F)=N[C@@H](C)c1c(C(=O)O)ncn1-2 [SH-053-2′P-S-CH3 Acid]
93

Please give the documented BZR % of C#Cc1ccc2c(c1)C(c1ccccc1F)=N[C@@H](C)c1c(C(N)=O)ncn1-2 [MP-III-018.B]
97

Identify measured BZR % associated with C#Cc1ccc2c(c1)C(c1ccccc1)=NCc1c(-c3cnco3)ncn1-2 [KRM-II-82]
95

Using known records, supply BZR % for C[C@H]1N=C(c2ccccc2F)c2cc(Cl)ccc2-n2cnc(C(=O)O)c21 [GL-III-54]
100

Give the measured BZR % for C#Cc1ccc2c(c1)C(c1ccccc1F)=N[C@@H](C)c1c(C(=O)SCC)ncn1-2 [GL-I-77]
92

Provide measured BZR % value, entry: Brc1ccc2c(c1)C(c1ccccn1)=NCc1c(-c3cnco3)ncn1-2 [KRM-II-97]
93

Consider the molecule C#Cc1ccc2c(c1)C(c1ccccc1F)=NC(C)c1c(C(=O)OC(C)(C)C)ncn1-2 (centres unmarked) [GL-I-30] and give its recorded BZR %.
96

Answer with the recorded BZR % for the molecule listed here: Cc1noc(-c2ncn3c2[C@@H](C)N=C(c2ccccn2)c2cc(C4CC4)ccc2-3)n1 [GL-III-64]
92
